Assay: Acute toxicity test (LD50)
Type: in vivo, ICR male mice
Conditions: mouse, in vivo, ip, ICR male mice, I.P.; read-out: LD50
Source text: LD50 (mg/kg) values (ICR male mice, I.P.) of R-(+)-cyclophosphamide, S-(-)-cyclophosphamide and racemic form of cyclophosphamide are shown below.
QUANTITY_KIND: LD50 (mg/kg)
I only need the number, in mg/kg, no unit after it.

- COMPOUND: "O=P1(N(CCCl)CCCl)NCCCO1 (racemic) [Racemic form of cyclophosphamide, cyclophosphamide]"
  UNITS_SYMBOL: "mg/kg"
  OBS_VALUE: 440

Next:
Please give the measured LD50 for this compound: O=P1(N(CCCl)CCCl)NCCCO1 (single isomer, unassigned) [R-(+)-cyclophosphamide] 550
